Test system: ethanol ulcer in the gland gastric region
TEST METHOD NOTES: Ethanol ulcer
Assay type: in vivo
CONDITION DETAILS: rats fasted 24 hours, drug oral, 99.5% ethanol 1 ml/rat after one hour, size of ulcer one hour later; dose not given
MEASUREMENT KIND: Suppression (%)

| COMPOUND | TGT | UNITS SYMBOL | NUMERIC READOUT |
| --- | --- | --- | --- |
| CCCCCCS(=O)(=O)N(CCOCCN)c1ccccc1NCCOc1ccc(Cl)cc1 [Example 28] | ethanol ulcer in the gland gastric region | % | 100 |
| Cc1ccc(S(=O)(=O)N(CCOCCN)c2ccccc2NCCOc2ccc(Cl)cc2)cc1 [Example 35] | ethanol ulcer in the gland gastric region | % | 99 |
| CCCCCCCCS(=O)(=O)N(CCOCCN)c1ccccc1NCCOc1ccc(Cl)cc1 [Example 26] | ethanol ulcer in the gland gastric region | % | 98 |
| NCCN(c1cccnc1NCCN(c1ccc(Cl)cc1)S(=O)(=O)c1ccc(Cl)cc1)S(=O)(=O)c1ccc(Cl)cc1 [Example 111] | ethanol ulcer in the gland gastric region | % | 100 |
| NCCOCCN(c1ccccc1NCCOc1ccc(Cl)cc1)S(=O)(=O)c1ccc(F)cc1 [Example 41] | ethanol ulcer in the gland gastric region | % | 93 |
| COc1ccc(S(=O)(=O)N(CCN)c2ccccc2NCCOc2ccc(Cl)cc2)cc1 [Example 11] | ethanol ulcer in the gland gastric region | % | 96 |
| CCN(CCNc1ncccc1N(CCN)S(=O)(=O)c1ccc(Cl)cc1)c1ccc(Cl)cc1 [Example 116] | ethanol ulcer in the gland gastric region | % | 99 |
| NCCN(c1cccnc1N1CCN(c2ccc(Cl)cc2)CC1)S(=O)(=O)c1ccc(Cl)cc1 [Example 136] | ethanol ulcer in the gland gastric region | % | 80 |
| NCCOCCN(c1ccccc1NCCOc1ccc(Cl)cc1)S(=O)(=O)c1ccc(Cl)cc1.O=C(O)C(O)C(O)C(=O)O [Example 4] | ethanol ulcer in the gland gastric region | % | 85 |
| CCS(=O)(=O)N(CCOCCN)c1ccccc1NCCOc1ccc(Cl)cc1 [Example 23] | ethanol ulcer in the gland gastric region | % | 98 |
| O=S(=O)(c1ccc(Cl)cc1)N(CCO)c1ccccc1NCCOc1ccc(Cl)cc1 [Example 9] | ethanol ulcer in the gland gastric region | % | 85 |
| CN(CCOc1ccc(Cl)cc1)c1ccccc1N(CCOCCN)S(=O)(=O)c1ccc(Cl)cc1 [Example 68] | ethanol ulcer in the gland gastric region | % | 94 |
| CN(C)CCN(c1ccccc1NCCOc1ccc(Cl)cc1)S(=O)(=O)c1ccc(Cl)cc1.CN(C)CCN(c1ccccc1NCCOc1ccc(Cl)cc1)S(=O)(=O)c1ccc(Cl)cc1.O=C(O)C(O)C(O)C(=O)O [Example 3] | ethanol ulcer in the gland gastric region | % | 88 |
| NCCN(c1cccnc1NCCOc1ccc(Cl)cc1)S(=O)(=O)c1ccc(Cl)cc1 [Example 106] | ethanol ulcer in the gland gastric region | % | 98 |
| NCCOCCN(c1ccccc1NCCOc1ccc(Cl)cc1)S(=O)(=O)c1ccc(Br)cc1 [Example 43] | ethanol ulcer in the gland gastric region | % | 78 |
| NCCOCCN(c1ccccc1N(CCOc1ccc(Cl)cc1)Cc1ccccc1)S(=O)(=O)c1ccc(Cl)cc1 [Example 70] | ethanol ulcer in the gland gastric region | % | 96 |

* * *

System: rat red blood cell
TEST METHOD NOTES: Hemolytic action
Type: cell-based
CONDITION DETAILS: 10% rat red blood cell stock, 1% DMSO containing saline, 30 minutes at 37° C., absorbance 540 nm
Label yes (1) when HC50 is strictly below 80 µg/mL; otherwise label no (0).

| SMILES REPR | GROUP LABEL |
| --- | --- |
| CN(C)CCN(c1ccccc1N1CCNCC1)S(=O)(=O)c1ccc(Cl)cc1.Cl | no (0) |
| CC(C)S(=O)(=O)N(CCOCCN)c1ccccc1NCCOc1ccc(Cl)cc1 | no (0) |
| CCCCCCS(=O)(=O)N(CCN(C)C)c1ccccc1NCCOc1ccc(Cl)cc1.Cl | no (0) |
| CCS(=O)(=O)N(CCN(C)C)c1ccccc1NCCOc1ccc(Cl)cc1.Cl | no (0) |
| CN(C)CCN(c1ccccc1NCCOc1ccc(Cl)cc1)S(=O)(=O)c1ccccc1Cl.Cl | no (0) |
| CCCCS(=O)(=O)N(CCOCCN)c1ccccc1NCCOc1ccc(Cl)cc1 | yes (1) |
| CN(C)CCN(c1ccccc1Oc1ccc(Cl)cc1)S(=O)(=O)c1ccc(Cl)cc1.Cl | no (0) |
| CS(=O)(=O)N(CCOCCN)c1ccccc1NCCOc1ccc(Cl)cc1 | yes (1) |
| CN(C)CCN(c1ccccc1NCCOc1ccc(Cl)cc1)S(=O)(=O)c1cccc2cnccc12.Cl | no (0) |
| NCCOCCN(c1ccccc1NCCOc1ccc(Cl)cc1)S(=O)(=O)c1ccc(Br)cc1 | no (0) |
| COc1ccc(S(=O)(=O)N(CCN(C)C)c2ccccc2NCCOc2ccc(Cl)cc2)cc1.Cl | no (0) |
| CN(C)CCN(c1ccccc1NCCOc1ccc(Cl)cc1)S(=O)(=O)c1ccc(F)cc1.Cl | no (0) |
| CN(C)CCN(c1ccccc1N1CCOCC1)S(=O)(=O)c1ccc(Cl)cc1.Cl | no (0) |
| CN(C)CCN(c1ccccc1NCCOc1ccc(Cl)cc1)S(=O)(=O)c1ccc(Cl)cc1.CN(C)CCN(c1ccccc1NCCOc1ccc(Cl)cc1)S(=O)(=O)c1ccc(Cl)cc1.O=C(O)C(O)C(O)C(=O)O | yes (1) |
| CCCS(=O)(=O)N(CCOCCN)c1ccccc1NCCOc1ccc(Cl)cc1 | no (0) |
| CN(C)CCN(c1ccccc1NCCOc1ccccc1)S(=O)(=O)c1ccc(Cl)cc1.Cl | no (0) |
| CN(C)CCN(c1ccccc1NCCOc1cccc(Cl)c1)S(=O)(=O)c1ccc(Cl)cc1.Cl | yes (1) |

* * *

Tested on: ethanol ulcer in the gland gastric region
TEST METHOD NOTES: Ethanol ulcer
Assay type: in vivo
CONDITION DETAILS: rats fasted 24 hours, drug oral, 99.5% ethanol 1 ml/rat after one hour, size of ulcer one hour later; dose not given

| MOLECULE | Suppression [%] |
| --- | --- |
| NCCN(c1ccccc1OCCNc1ccc(Cl)cc1)S(=O)(=O)c1ccc(Cl)cc1 [Example 122] | 99 |
| NCCOCCN(c1ccccc1N1CCCN(c2ccc(Cl)cc2)CC1)S(=O)(=O)c1ccc(Cl)cc1 [Example 134] | 98 |
| O=S(=O)(c1ccc(Cl)cc1)N(CCN1CCNCC1)c1cccnc1NCCNc1ccc(Cl)cc1 [Example 97] | 81 |
| O=S(=O)(c1ccc(Cl)cc1)N(CCCc1ccncc1)c1ccccc1NCCOc1ccc(Cl)cc1 [Example 10] | 82 |

* * *

Test system: ethanol ulcer in the gland gastric region
TEST METHOD NOTES: Ethanol ulcer
Assay type: in vivo
CONDITION DETAILS: rats fasted 24 hours, drug oral, 99.5% ethanol 1 ml/rat after one hour, size of ulcer one hour later; dose not given
Label label 1 when Suppression is strictly below 90%; otherwise label label 0.

| MOLECULE | GROUP LABEL |
| --- | --- |
| NCCOCCN(c1ccccc1NCCOc1ccc(Cl)cc1)S(=O)(=O)c1ccccc1 | label 1 |
| NCCN(c1cccnc1OCCNc1ccc(Cl)cc1)S(=O)(=O)c1ccc(Cl)cc1 | label 1 |
| O=S(=O)(c1ccc(Cl)cc1)N(CCN1CCCC1)c1ccccc1NCCOc1ccc(Cl)cc1 | label 1 |
| CCCCS(=O)(=O)N(CCOCCN)c1ccccc1NCCOc1ccc(Cl)cc1 | label 0 |
| NCCOCCN(c1cccc2c1N(CCOc1ccc(Cl)cc1)CCC2)S(=O)(=O)c1ccc(Cl)cc1 | label 0 |
| NCCN(c1cccnc1NCCNc1ccc(Cl)cc1)S(=O)(=O)c1ccc(Cl)cc1 | label 1 |
| NCCOCCN(c1ccccc1NCCOc1ccc(F)cc1)S(=O)(=O)c1ccc(Cl)cc1 | label 0 |
| O=S(=O)(c1ccc(Cl)cc1)N(CCC1CCCCN1)c1cccnc1NCCNc1ccc(Cl)cc1 (centres unmarked) | label 0 |

* * *

TGT: H/K-ATPase (Oryctolagus cuniculus, UniProt P27112)
Sequence (P27112 whole entry): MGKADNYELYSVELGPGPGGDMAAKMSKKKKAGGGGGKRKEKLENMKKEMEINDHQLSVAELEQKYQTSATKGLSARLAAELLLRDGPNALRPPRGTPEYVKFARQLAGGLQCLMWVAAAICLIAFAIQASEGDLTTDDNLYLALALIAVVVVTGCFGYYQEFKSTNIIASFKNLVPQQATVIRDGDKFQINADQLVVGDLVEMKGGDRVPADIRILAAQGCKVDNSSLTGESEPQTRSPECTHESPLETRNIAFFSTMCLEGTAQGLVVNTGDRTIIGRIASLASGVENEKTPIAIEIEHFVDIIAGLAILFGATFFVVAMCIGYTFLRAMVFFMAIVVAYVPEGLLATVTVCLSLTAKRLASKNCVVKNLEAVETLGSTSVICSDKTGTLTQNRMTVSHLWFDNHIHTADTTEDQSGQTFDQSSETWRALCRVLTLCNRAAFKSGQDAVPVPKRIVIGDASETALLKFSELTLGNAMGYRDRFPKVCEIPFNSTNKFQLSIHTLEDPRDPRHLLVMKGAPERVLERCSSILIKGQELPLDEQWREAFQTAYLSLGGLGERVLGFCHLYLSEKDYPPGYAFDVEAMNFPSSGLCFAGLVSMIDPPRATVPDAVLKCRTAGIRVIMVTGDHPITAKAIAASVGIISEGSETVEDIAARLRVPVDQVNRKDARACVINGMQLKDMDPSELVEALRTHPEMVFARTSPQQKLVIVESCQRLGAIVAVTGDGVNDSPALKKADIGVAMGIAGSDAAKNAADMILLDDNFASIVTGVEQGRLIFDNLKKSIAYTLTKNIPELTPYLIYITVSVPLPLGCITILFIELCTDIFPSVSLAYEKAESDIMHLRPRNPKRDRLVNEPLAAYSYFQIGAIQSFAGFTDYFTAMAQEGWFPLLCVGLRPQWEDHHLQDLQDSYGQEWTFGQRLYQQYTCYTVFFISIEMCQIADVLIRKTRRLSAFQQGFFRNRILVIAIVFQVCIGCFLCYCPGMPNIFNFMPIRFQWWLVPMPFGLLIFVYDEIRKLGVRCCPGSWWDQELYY
Sequence (P18597 whole entry partner): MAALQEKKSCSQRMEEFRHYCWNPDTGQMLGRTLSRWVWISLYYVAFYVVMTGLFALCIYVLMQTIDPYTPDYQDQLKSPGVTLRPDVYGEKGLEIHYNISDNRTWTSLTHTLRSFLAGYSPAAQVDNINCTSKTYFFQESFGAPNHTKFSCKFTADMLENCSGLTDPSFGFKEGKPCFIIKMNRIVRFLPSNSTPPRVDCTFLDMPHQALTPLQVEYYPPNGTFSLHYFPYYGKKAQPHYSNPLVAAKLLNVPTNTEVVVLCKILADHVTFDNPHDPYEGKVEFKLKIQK
TEST METHOD NOTES: H/K-ATPase inhibition
CONDITION DETAILS: pH 7.4, H/K-ATPase from rabbit gastric mucous membrane
# IC50 values compiled below

| SMILES REPR | TGT | IC50 |
| --- | --- | --- |
| NCCOCCN(c1cccc2c1N(CCOc1ccc(Cl)cc1)CCC2)S(=O)(=O)c1ccc(Cl)cc1 | H/K-ATPase (Oryctolagus cuniculus, UniProt P27112) | 2 µM |
| CCCCCCCS(=O)(=O)N(CCOCCN)c1ccccc1NCCOc1ccc(Cl)cc1 | H/K-ATPase (Oryctolagus cuniculus, UniProt P27112) | 5 µM |
| NCCN(c1cccnc1NCCNc1ccc(Cl)cc1)S(=O)(=O)c1ccc(Cl)cc1 | H/K-ATPase (Oryctolagus cuniculus, UniProt P27112) | 1.1 µM |
| NCCOCCN(c1ccccc1Oc1ccc(Cl)cc1)S(=O)(=O)c1ccc(Cl)cc1 | H/K-ATPase (Oryctolagus cuniculus, UniProt P27112) | 11.4 µM |
| CCS(=O)(=O)N(CCOCCN)c1ccccc1NCCOc1ccc(Cl)cc1 | H/K-ATPase (Oryctolagus cuniculus, UniProt P27112) | 230 µM |
| CCCCCCS(=O)(=O)N(CCOCCN)c1ccccc1NCCOc1ccc(Cl)cc1 | H/K-ATPase (Oryctolagus cuniculus, UniProt P27112) | 79 µM |
